- TARGET_SYSTEM: recombinant human Hsp90α (Homo sapiens, UniProt P07900)
- Construct: purchased Abcam
- TEST_DESCRIPTION: SPR binding to immobilized recombinant Hsp90α
- EXPERIMENTAL_CONTEXT: Biacore 3000, immobilized full length Hsp90α, 25 °C, 1:1 Langmuir model, read-out: KD (nM) ± SD
MEASUREMENT_TYPE: log10 Kd (log10 of the value in nM)
Annotation: log10 of Kd, nM basis.

Prompt: Which log10 Kd value is on record for O=C1CCS(=O)(=O)N1c1ccc(S(=O)(=O)NCc2cccc3c2OCO3)cc1 [Compound 15] ?
Completion: 0.68

Prompt: Which log10 Kd value is on record for NC(=O)c1ccc(NC(=O)CCCCCn2c(=O)[nH]c3ccccc3c2=O)cc1 [Compound 14] ?
Completion: 2.41

Prompt: Which log10 Kd value is on record for COc1ccc(NCC(=O)Nc2ncc(Cc3ccc(Cl)c(Cl)c3)s2)cc1 [Compound 7] ?
Completion: 0.72

Prompt: Which log10 Kd value is on record for O=C(CCCCCn1c(=O)[nH]c2ccccc2c1=O)CCCn1ccnc1 [Compound 11] ?
Completion: 1.90

Prompt: Which log10 Kd value is on record for COc1cc(/C=N/NC(=O)NC(=O)c2ccccc2Cl)ccc1O [Compound 21] ?
Completion: 1.12

----------
- Test system: U937 (human monocytic cell line from histiocytic lymphoma)
- TEST_DESCRIPTION: Anti-proliferation MTT assay, U937 cells
- Format: cell-based
- EXPERIMENTAL_CONTEXT: Homo sapiens, U-937, 48 h, read-out: IC50 (µM) 48h
- Experimental: Jurkat and U937 (2 × 10^4 /well) cells were seeded in triplicate in 96 well−plates and incubated for the 24 h or 48 h in the absence or presence of different concentrations of compounds 1, 4–5, 7–15, 21–22, 26 (concentration between 10 µM to 100 µM) or Novobiocin (concentration between 50 µM to 500 µM). Stock solutions of compounds (100 mM in DMSO) were diluted just before addition to the sterile culture medium and the final concentration of DMSO was 0.15% (v/v). […]
MEASUREMENT_TYPE: IC50 (µM)
Write the number in µM without appending the unit.

Prompt: Which IC50 value is on record for CO[C@@H]1[C@@H](OC(N)=O)[C@@H](O)[C@H](Oc2ccc3c(O)c(NC(=O)c4ccc(O)c(CC=C(C)C)c4)c(=O)oc3c2C)OC1(C)C [Novobiocin, reference compound] ?
Completion: 190

Prompt: Which IC50 value is on record for `COc1ccc(NCC(=O)Nc2ncc(Cc3ccc(Cl)c(Cl)c3)s2)cc1` ?
Completion: 51

Prompt: Which IC50 value is on record for `O=C(CCCCCn1c(=O)[nH]c2ccccc2c1=O)Nc1ccc(Br)cc1F` ?
Completion: 50

The measured values listed here are drawn from paper PMC5786060.
